- Tested System: PI 4-kinase beta (Homo sapiens)
- Sequence (Q9UBF8 whole entry): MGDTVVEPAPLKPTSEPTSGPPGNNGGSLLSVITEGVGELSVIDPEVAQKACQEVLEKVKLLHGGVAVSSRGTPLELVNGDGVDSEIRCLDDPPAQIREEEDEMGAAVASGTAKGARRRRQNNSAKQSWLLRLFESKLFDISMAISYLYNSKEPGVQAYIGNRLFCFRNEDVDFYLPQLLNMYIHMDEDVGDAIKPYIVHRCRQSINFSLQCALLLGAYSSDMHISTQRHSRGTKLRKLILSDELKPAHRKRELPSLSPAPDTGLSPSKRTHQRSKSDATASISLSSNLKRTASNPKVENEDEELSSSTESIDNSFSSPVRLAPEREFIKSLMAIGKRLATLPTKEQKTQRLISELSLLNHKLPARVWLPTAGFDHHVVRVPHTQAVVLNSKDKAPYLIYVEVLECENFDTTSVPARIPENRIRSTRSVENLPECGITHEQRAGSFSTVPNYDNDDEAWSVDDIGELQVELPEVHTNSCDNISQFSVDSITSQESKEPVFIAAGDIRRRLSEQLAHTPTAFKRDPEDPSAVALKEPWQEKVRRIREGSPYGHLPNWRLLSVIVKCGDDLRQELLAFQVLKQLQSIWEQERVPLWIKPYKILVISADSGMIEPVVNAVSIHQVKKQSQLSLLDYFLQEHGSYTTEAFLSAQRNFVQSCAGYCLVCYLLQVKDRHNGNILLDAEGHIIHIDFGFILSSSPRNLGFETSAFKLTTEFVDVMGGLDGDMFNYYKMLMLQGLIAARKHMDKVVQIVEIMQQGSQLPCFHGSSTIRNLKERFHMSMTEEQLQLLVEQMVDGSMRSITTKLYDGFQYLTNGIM
- Experiment Summary: Kinase Glo Luminescent Kinase Assay (Kglo), assay D
- Type: biochemical
- Condition Label: read-out: Assay D PI4Kβ IC50
pIC50: −log10 of the molar value.
Metric Name: pIC50

Before answering, review these 2 worked examples.
# Compound, pIC50
data = [
    ("Cc1ccc(S(=O)(=O)N[C@H]2CC[C@H](O)CC2)cc1-c1cnc(N)c(-c2ccnc(F)c2)n1 [Example 60]", 5.44),
    ("Cc1ccc(S(=O)(=O)NC[C@H]2C[C@@H](O)C2)cc1-c1cnc(N)c(-c2cc(C3CC3)no2)n1 [Example 100]", 5.24),
]

a = Cc1ccc(S(=O)(=O)NCC2(C)COC2)cc1-c1cnc(N)c(-c2cnn(C)c2)n1 [Example 5]
b = Cc1ccc(S(=O)(=O)N[C@H]2C[C@H](O)C2)cc1-c1cnc(N)c(-n2cncn2)n1 [Example 71a]
IN: Two entries are listed, a and b . Which one carries the higher pIC50? When you have decided, please share the label of that item.
OUT: b
(b: 5.55, a: 5.17)

----------
- Tested System: PI 3-kinase gamma (Homo sapiens, UniProt P48736)
- Sequence (P48736 whole entry): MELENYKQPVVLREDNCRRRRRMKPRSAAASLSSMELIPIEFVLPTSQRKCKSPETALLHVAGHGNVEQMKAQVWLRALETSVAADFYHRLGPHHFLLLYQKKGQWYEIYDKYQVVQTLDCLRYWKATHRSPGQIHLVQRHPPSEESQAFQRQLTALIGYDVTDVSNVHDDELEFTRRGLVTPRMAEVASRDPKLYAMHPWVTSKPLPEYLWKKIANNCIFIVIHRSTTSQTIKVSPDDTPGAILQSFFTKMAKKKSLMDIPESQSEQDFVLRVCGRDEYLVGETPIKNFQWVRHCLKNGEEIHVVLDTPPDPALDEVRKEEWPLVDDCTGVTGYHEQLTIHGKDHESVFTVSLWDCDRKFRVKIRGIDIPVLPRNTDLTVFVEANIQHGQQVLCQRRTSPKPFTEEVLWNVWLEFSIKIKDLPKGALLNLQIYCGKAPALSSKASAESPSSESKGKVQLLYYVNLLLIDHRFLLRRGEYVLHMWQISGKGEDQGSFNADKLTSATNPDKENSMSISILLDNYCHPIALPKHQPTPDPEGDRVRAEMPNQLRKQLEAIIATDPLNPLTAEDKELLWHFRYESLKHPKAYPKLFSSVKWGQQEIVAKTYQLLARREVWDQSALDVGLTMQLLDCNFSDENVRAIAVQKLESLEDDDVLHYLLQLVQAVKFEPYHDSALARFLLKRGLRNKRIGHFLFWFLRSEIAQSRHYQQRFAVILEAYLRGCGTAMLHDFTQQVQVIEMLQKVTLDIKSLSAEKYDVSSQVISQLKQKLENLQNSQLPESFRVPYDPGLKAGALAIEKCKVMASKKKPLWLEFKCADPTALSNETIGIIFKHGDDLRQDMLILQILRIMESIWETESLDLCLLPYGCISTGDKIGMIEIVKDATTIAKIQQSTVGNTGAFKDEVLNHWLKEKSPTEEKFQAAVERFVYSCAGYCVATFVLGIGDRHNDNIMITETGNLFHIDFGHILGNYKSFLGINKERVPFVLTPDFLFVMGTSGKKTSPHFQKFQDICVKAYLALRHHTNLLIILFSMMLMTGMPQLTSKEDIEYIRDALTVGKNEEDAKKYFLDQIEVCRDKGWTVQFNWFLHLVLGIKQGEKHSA
- Experiment Summary: Cellular U937 AKT assay K1 (MSD)
- Assay type: cell-based
- Condition Label: U937 cells, K1 format; read-out: Assay K1 PI3Kγ IC50
pIC50: −log10 of the molar value.
Metric Name: pIC50

Previously resolved entries follow.
# Compound, Tested System, pIC50
rows = [
    ("Cc1cc(F)c(S(=O)(=O)NCCCO)cc1-c1cnc(N)c(-c2cnn(C)c2)n1", "PI 3-kinase gamma (Homo sapiens, UniProt P48736)", 6.75),
    ("Cc1ccc(S(=O)(=O)N[C@H]2CC[C@H](O)CC2)cc1-c1cnc(N)c(-n2cncn2)n1", "PI 3-kinase gamma (Homo sapiens, UniProt P48736)", 7.21),
    ("Cc1ncc(-c2nc(-c3cc(S(=O)(=O)NC[C@H]4C[C@@H](O)C4)ccc3C)cnc2N)s1 [Example 20a]", "PI 3-kinase gamma (Homo sapiens, UniProt P48736)", 7.96),
    ("Cc1ccc(S(=O)(=O)N[C@H]2CC[C@@](C)(O)CC2)cc1-c1cnc(N)c(-n2cncn2)n1 [Example 69b]", "PI 3-kinase gamma (Homo sapiens, UniProt P48736)", 6.87),
    ("Cc1ccc(S(=O)(=O)NCC2(O)CCCC2)cc1-c1cnc(N)c(-n2cncn2)n1", "PI 3-kinase gamma (Homo sapiens, UniProt P48736)", 7.07),
]

1 = Cc1csc(-c2nc(-c3cc(S(=O)(=O)NCCC(C)(C)O)ccc3C)cnc2N)c1
2 = Cc1ccc(S(=O)(=O)NOCCN(C)C)cc1-c1cnc(N)c(-n2cncn2)n1
IN: Among 1 and 2 , which shows a numerically higher pIC50 result? Write down the label attached to your selection.
OUT: 1
(1: 7.22, 2: 6.86)

----------
- Experiment Summary: Microsomal clearance assay (M)
- Condition Label: intrinsic clearance in rat liver microsomes
Metric Name: Assay M RLM CI(int) (µL/min/mg)

The cases that follow already have their Assay M RLM CI(int) on record.
# Compound, Endpoint Result
data = [
    ("Cc1cc(-c2nc(-c3cc(S(=O)(=O)NCC4(O)COC4)ccc3C)cnc2N)ccn1 [Example 129.32]", 18),
    ("Cc1ccc(S(=O)(=O)NCCC(C)(C)O)cc1-c1cnc(N)c(-c2cnn(CC(C)C)c2)n1 [Example 119.32]", 191),
]

I = Cc1ccc(S(=O)(=O)NCCC(C)(C)O)cc1-c1cnc(N)c(-c2cnn(C)n2)n1 [Example 85]
II = Cc1ccc(S(=O)(=O)NCC2COC2)cc1-c1cnc(N)c(-n2cncn2)n1 [Example 131]
III = Cc1ccc(S(=O)(=O)NCCC(C)(C)O)cc1-c1cnc(N)c(-c2csc(CN3CCOCC3)c2)n1 [Example 30]
IN: Sort these compounds on Assay M RLM CI(int) so the largest reading comes first. Rank them, then answer with their labels in that order.
OUT: III, I, II

A = Cc1ccc(S(=O)(=O)NCC2(O)CC2)cc1-c1cnc(N)c(-n2cncn2)n1 [Example 28]
B = Cc1ccc(S(=O)(=O)NCC(C)(C)O)cc1-c1cnc(N)c(-c2cnn(CC(F)(F)F)n2)n1 [Example 84]
C = Cc1cc(-c2nc(-c3cc(S(=O)(=O)NC[C@H]4CCCO4)ccc3C)cnc2N)ccn1 [Example 129.12]
D = COc1nc(-c2nc(-c3cc(S(=O)(=O)NCCC(C)(C)O)ccc3C)cnc2N)cs1 [Example 110]
E = Cc1ncc(-c2nc(-c3cc(S(=O)(=O)NCC(F)(F)F)ccc3C)cnc2N)s1 [Example 45.5]
IN: Number of compounds to sort: 5. Sort criterion: Assay M RLM CI(int), ascending. Dear reader, please state the labels in the requested order.
OUT: A, B, C, E, D

P = Cc1ncc(-c2nc(-c3cc(S(=O)(=O)NC[C@H]4C[C@H](O)C4)ccc3C)cnc2N)s1 [Example 20b]
Q = Cc1noc(-c2nc(-c3cc(S(=O)(=O)NC[C@H]4C[C@@H](O)C4)ccc3C)cnc2N)n1 [Example 96]
R = Cc1ncc(-c2nc(-c3cc(S(=O)(=O)NCC4(O)COC4)ccc3C)cnc2N)s1 [Example 45.11]
IN: List by increasing Assay M RLM CI(int). In plain terms: list the labels in the order you were asked to.
OUT: P, R, Q
(P: 30 µL/min/mg, R: 43 µL/min/mg, Q: 62 µL/min/mg)

----------
- Tested System: PI 3-kinase gamma (Homo sapiens, UniProt P48736)
- Experiment Summary: TR-FRET Adapta assay, assay E
- Assay type: biochemical
- Condition Label: read-out: Assay E PI3Kγ IC50
Structures can show the parent of a compound that is named as a salt.
Metric Name: IC50 (nM)

# Compound, Metric Name, Endpoint Result
data = [
    ("Cc1ccc(S(=O)(=O)NC2CC3(CC(O)C3)C2)cc1-c1cnc(N)c(-c2cn(C)nc2C)n1 (single isomer, unassigned) [Example 9a]", "IC50", 15),
    ("Cc1ncc(-c2nc(-c3cc(S(=O)(=O)NCC4(CO)CCOCC4)ccc3C)cnc2N)s1", "IC50", 39),
]

P = CCN1CCC[C@@H]1CNS(=O)(=O)c1ccc(C)c(-c2cnc(N)c(-c3cn(C)nc3C)n2)c1 [Example 27, hydrochloride]
Q = Cc1ccc(S(=O)(=O)NC2CCOC2=O)cc1-c1cnc(N)c(-n2cncn2)n1 (stereo not shown)
IN: Looking only at measured IC50, which entry is lower, P or Q ? Lab log: write the label of the selected item as the result.
OUT: P

1 = Cc1ccc(S(=O)(=O)NC(C)C(C)C)cc1-c1cnc(N)c(-n2cncn2)n1 (stereo not shown)
2 = Cc1ccc(S(=O)(=O)NC2(CO)CC2)cc1-c1cnc(N)c(-n2cncn2)n1
IN: Hi there! Just curious which has the higher IC50 between 1 and 2 . Write down the label attached to your selection.
OUT: 1
(1: 120 nM, 2: 38 nM)

----------
- Tested System: PI 3-kinase gamma (Homo sapiens)
- Experiment Summary: TR-FRET Adapta assay, assay E
- Assay type: biochemical
- Condition Label: read-out: Assay E PI3Kγ IC50
pIC50: −log10 of the molar value. Counter-ions that a name gives are not always drawn.
Metric Name: pIC50

Reference set, count: 5
# Molecule, Endpoint Result
measured = [
    ("Cc1ccc(S(=O)(=O)NC[C@@H]2CCNC2)cc1-c1cnc(N)c(-n2cncn2)n1 [Example 127.57, trifluoroacetic acid salt]", 7.30),
    ("Cc1ccc(S(=O)(=O)NCC(C)(C)O)cc1-c1cnc(N)c(-c2noc(C3CC3)n2)n1", 6.57),
    ("Cc1cc(-c2nc(-c3cc(S(=O)(=O)NC4CCN(C(C)C)CC4)ccc3C)cnc2N)ccn1", 7.28),
    ("Cc1ccc(S(=O)(=O)NCCC(C)(C)O)cc1-c1cnc(N)c(-c2cnn(CC(F)(F)F)c2)n1", 7.92),
    ("Cc1ncc(-c2nc(-c3cc(S(=O)(=O)N4CCNC(C(F)(F)F)C4)ccc3C)cnc2N)s1 (stereo not shown)", 7.96),
]

I = Cc1cc(-c2nc(-c3cc(S(=O)(=O)NCC4(O)COC4)ccc3C)cnc2N)ccn1
II = Cc1ccc(S(=O)(=O)N[C@@H](C)CO)cc1-c1cnc(N)c(-n2cncn2)n1
IN: Of I and II , which one carries the higher reported pIC50? Lab log: write the label of the selected item as the result.
OUT: I
(I: 7.41, II: 6.57)

----------
- Tested System: UniProt P42336
- Sequence (P42336 whole entry): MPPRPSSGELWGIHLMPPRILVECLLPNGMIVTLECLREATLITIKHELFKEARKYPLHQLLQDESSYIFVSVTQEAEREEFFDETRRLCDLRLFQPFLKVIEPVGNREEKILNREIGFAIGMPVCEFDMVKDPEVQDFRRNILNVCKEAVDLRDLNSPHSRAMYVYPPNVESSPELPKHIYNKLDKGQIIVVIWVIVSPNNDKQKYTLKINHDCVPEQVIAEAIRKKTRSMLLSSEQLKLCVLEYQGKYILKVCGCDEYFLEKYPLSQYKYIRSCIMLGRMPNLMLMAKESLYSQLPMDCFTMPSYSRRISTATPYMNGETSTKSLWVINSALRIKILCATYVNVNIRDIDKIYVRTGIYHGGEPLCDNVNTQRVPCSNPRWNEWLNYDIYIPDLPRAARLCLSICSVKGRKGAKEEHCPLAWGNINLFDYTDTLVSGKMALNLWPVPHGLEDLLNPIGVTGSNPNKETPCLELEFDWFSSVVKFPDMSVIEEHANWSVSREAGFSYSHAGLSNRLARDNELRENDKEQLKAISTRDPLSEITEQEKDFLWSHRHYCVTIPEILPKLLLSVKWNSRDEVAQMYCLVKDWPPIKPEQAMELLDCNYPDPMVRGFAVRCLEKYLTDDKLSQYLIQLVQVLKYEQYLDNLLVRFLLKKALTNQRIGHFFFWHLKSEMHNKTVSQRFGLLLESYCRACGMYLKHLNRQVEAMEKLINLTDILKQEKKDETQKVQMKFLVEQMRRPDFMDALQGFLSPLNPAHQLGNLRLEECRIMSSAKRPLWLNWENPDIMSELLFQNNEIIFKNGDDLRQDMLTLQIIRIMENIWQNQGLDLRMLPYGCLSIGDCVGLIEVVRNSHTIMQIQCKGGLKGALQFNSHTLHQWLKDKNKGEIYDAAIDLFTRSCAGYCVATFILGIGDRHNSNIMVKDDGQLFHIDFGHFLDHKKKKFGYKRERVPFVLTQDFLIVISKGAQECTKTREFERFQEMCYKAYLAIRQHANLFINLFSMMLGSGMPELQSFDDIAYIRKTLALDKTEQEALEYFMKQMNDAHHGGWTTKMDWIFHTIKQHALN
- Sequence (Q63787 whole entry partner): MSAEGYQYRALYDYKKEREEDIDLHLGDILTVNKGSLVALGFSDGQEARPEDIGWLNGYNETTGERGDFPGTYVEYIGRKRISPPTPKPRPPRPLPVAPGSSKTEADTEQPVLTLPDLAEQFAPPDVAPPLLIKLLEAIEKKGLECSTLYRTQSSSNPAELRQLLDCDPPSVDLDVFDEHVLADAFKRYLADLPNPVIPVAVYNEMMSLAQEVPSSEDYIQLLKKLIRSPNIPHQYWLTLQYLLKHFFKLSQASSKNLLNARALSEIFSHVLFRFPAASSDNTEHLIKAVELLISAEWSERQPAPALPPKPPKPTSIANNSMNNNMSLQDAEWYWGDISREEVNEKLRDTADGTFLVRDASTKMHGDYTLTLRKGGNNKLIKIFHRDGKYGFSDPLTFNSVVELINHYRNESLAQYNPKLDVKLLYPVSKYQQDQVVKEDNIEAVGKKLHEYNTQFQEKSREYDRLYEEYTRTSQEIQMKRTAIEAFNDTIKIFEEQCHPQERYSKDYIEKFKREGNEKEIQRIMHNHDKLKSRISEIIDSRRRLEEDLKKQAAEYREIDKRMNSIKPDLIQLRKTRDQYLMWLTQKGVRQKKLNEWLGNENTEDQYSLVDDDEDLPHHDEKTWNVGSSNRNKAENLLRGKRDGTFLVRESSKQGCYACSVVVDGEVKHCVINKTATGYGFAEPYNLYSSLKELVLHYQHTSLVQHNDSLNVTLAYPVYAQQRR
- Experiment Summary: Cellular assay H2, p-AKT (Ser473) in Rat-1 cells, HTRF format
- Format: cell-based
- Condition Label: asterisked data: version H2 (HTRF format), read-out: Assay H PI3Kα IC50
Metric Name: IC50 (nM)

Take a look at these entries with their results.
# Compound, Tested System, IC50, nM
measured = [
    ("Cc1ncc(-c2nc(-c3cc(S(=O)(=O)NC[C@H]4CCCO4)ccc3C)cnc2N)s1 (single isomer, unassigned) [Example 45.6a]", "UniProt P42336", 820),
    ("Cc1ncc(-c2nc(-c3cc(S(=O)(=O)N[C@H]4C[C@H](O)C4)ccc3C)cnc2N)s1 [Example 43b]", "UniProt P42336", 5440),
    ("Cc1ncc(-c2nc(-c3cc(S(=O)(=O)NC[C@H]4CCCO4)ccc3C)cnc2N)s1 (single isomer, unassigned) [Example 45.6b]", "UniProt P42336", 1760),
]

P = Cc1ncc(-c2nc(-c3cc(S(=O)(=O)NCC4(CO)CCOCC4)ccc3C)cnc2N)s1
Q = Cc1ncc(-c2nc(-c3cc(S(=O)(=O)N[C@H]4C[C@@H](O)C4)ccc3C)cnc2N)s1 [Example 43a]
R = Cc1ncc(-c2nc(-c3cc(S(=O)(=O)NCC(C)(C)O)ccc3C)cnc2N)o1
S = Cc1ncc(-c2nc(-c3cc(S(=O)(=O)NCC4CCCCO4)ccc3C)cnc2N)s1 (stereo not shown)
IN: // smallest IC50 at index 0, largest at the end Labels, requested order.
OUT: P, S, Q, R
(P: 350 nM, S: 1230 nM, Q: 2140 nM, R: 4000 nM)
